Test system: M. tuberculosis XDR-1
experimentalReadout: MIC (µg/mL)

> print(dat)
                                   compound      measurementtarget  measuredresult
1  Cn1nc(C2CCN(c3ccc(NCc4ccc([N+](=O)[O-])o4)cc3F)CC2)oc1=O [Compound 10f]  M. tuberculosis XDR-1              16
2  O=c1oc(C2CCN(c3ccc(/N=C/c4ccc([N+](=O)[O-])o4)cc3)CC2)nn1Cc1ccccc1  M. tuberculosis XDR-1               8
3  CCn1nc(C2CCN(c3ccc(/N=C/c4ccc([N+](=O)[O-])o4)cc3F)CC2)oc1=O  M. tuberculosis XDR-1               4
4  O=c1oc(C2CCN(c3ccc(/N=C/c4ccc([N+](=O)[O-])o4)cc3F)CC2)nn1Cc1ccccc1  M. tuberculosis XDR-1               8
